The reported numbers originate from PubChem BioAssay AID797.

Target: Serine/threonine-protein kinase D1 (Homo sapiens) (UniProt Q15139)
Sequence (Q15139 whole entry, looked up): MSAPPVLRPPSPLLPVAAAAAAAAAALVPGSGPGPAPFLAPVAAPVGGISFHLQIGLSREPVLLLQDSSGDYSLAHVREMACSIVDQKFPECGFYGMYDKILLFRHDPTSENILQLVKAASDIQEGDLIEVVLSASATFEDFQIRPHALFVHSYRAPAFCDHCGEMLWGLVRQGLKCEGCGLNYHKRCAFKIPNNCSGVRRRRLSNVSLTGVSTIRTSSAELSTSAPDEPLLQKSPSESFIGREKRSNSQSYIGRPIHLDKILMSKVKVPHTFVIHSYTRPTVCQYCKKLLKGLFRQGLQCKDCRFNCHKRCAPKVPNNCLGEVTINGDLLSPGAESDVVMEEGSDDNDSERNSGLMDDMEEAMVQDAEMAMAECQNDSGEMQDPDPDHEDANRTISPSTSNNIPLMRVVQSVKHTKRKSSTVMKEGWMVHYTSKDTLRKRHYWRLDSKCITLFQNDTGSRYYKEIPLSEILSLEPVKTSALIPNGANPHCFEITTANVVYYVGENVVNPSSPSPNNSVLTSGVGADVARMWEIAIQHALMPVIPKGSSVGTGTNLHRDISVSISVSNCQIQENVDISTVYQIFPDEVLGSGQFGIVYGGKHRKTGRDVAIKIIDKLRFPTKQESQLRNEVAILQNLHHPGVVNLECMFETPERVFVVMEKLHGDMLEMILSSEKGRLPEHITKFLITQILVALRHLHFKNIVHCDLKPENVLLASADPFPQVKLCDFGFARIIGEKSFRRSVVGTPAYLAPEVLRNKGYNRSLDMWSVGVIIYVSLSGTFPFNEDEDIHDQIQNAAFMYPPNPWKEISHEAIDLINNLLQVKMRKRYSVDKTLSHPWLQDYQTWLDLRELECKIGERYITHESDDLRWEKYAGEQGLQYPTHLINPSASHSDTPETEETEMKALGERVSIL
Assay: inhibitors of human PKD1 kinase, biochemical, fluorescence polarization (AID 797)
Conditions: PKD1 kinase fluorescence polarization assay; stronger effect = higher value; concentration not given here
Hit rate of the full screen: of about 200,000 compounds, about 110 (0.055%) were called active. The full list was thinned out, with actives kept by preference.
parameter_measured: inhibition (%)

compound: CC(=O)Nc1ccc(NC(=S)NC(=O)/C=C/c2ccccc2)cc1
value_unit: %
observed_result: -7.92
//
compound: S=c1[nH]cc(-c2ccc(Cl)cc2)n1-c1ccccc1
value_unit: %
observed_result: -3.56
//
compound: CN(CCc1cnn(C)c1)Cc1cn(C)nc1-c1ccccc1F
value_unit: %
observed_result: 0.1
//
compound: O=C(NCCN1CCOCC1)Nc1cccc(Cl)c1
value_unit: %
observed_result: -8.08
//
compound: O=C1CN(C(=O)COC(=O)c2cnc(Cl)c(Cl)c2)c2ccccc2N1
value_unit: %
observed_result: 1.7
//
compound: COc1ccc(Nc2cc(C)nc(-n3nc(C)cc3C)n2)cc1
value_unit: %
observed_result: 56.8
//
compound: CCOC(=O)C(CC)/C(C)=N\NC(=O)c1cccc(C)c1 (stereo not drawn)
value_unit: %
observed_result: -4.87
//
compound: CC(=O)c1ccc(Oc2cc(C)nc(-n3nc(C)cc3C)n2)cc1
value_unit: %
observed_result: -3.62
//
compound: CCOc1cc2[nH]c(=S)n(Cc3ccc(C(=O)NCCOC)cc3)c(=O)c2cc1OCC
value_unit: %
observed_result: -4.22
//
compound: c1ccc(-c2csc(N3CCc4ccccc4C3)n2)cc1
value_unit: %
observed_result: -5.96
//
compound: COc1cc(OC)c(C2=NOC(C(=O)Nc3c(C)n(C)n(-c4ccccc4)c3=O)C2)cc1Cl (stereo not drawn)
value_unit: %
observed_result: 5.19
//
compound: Cc1cccc(C(=O)OC(C)CN2CCN(C)CC2)c1 (stereo not drawn)
value_unit: %
observed_result: 1.4
//
compound: CCC(C)NC(=O)/C=C/c1ccc(S(=O)(=O)NCc2ccco2)cc1 (stereo not drawn)
value_unit: %
observed_result: 7.02
//
compound: Cc1ccc(NC(=O)Cn2c(=O)n(CCC(=O)NC3CCN(Cc4ccccc4)CC3)c(=O)c3ccccc32)cc1
value_unit: %
observed_result: 0.69
//
compound: Cc1nc(-c2ccc(Cl)cc2)sc1C(=O)CBr
value_unit: %
observed_result: 2.56
//
compound: CCOc1ccc(-n2c(SCC(=O)NC3CCS(=O)(=O)C3)nnc2-c2cccnc2)cc1 (stereo not drawn)
value_unit: %
observed_result: 0.66
//
compound: CC(C)N1CCC(=NNc2ccc([N+](=O)[O-])cc2S(=O)(=O)N2CCOCC2)CC1
value_unit: %
observed_result: -0.4
//
compound: Cc1ccccc1NS(=O)(=O)CCCCC(Cl)(Cl)Cl
value_unit: %
observed_result: -2.05
//
compound: CSc1cccc(NC(=S)N(Cc2ccccc2)Cc2ccccn2)c1
value_unit: %
observed_result: -9.2
//
compound: O=C(O)Cc1ccc(NCc2ccccc2Cl)cc1
value_unit: %
observed_result: 0.93
//
compound: C/C(N)=C(/C#N)C(=O)COC(=O)c1cc(-c2cccc(Br)c2)nc2ccccc12
value_unit: %
observed_result: -0.94
//
compound: O=C(Nc1cccnc1)c1ccc(Cl)cc1[N+](=O)[O-]
value_unit: %
observed_result: -1.12
//
compound: CCCCC(=O)Nc1ccc(C(=O)Nc2cc(C(F)(F)F)ccc2Cl)cc1
value_unit: %
observed_result: -1.39
